Cited source: patent US12077503B2

Give measured plant injury at 125 g/ha for each item. Keep answers brief.
System: corn (Zea mays)
Assay: Test A postemergence
Format: in vivo
Settings: Zea mays, post-emergence, 240 h, 125 g ai/ha, postemergence; visual injury on 0 to 100 scale (0 no effect, 100 complete control), approx. 10 d; read-out: Corn plant response rating
All answers are understood in %, so give the number only.

Entry Cc1c(F)cccc1NC(=O)[C@H]1C(=O)N(C)C[C@@H]1c1cc(C(F)F)cs1 [Compound 1089] , tested on corn (Zea mays), has a reported plant injury at 125 g/ha of 30

Entry CSc1ccccc1NC(=O)[C@H]1C(=O)N(C)C[C@@H]1c1ccc(F)c(OC(C)C)c1 [Compound 1076] , tested on corn (Zea mays), has a reported plant injury at 125 g/ha of 0

Entry CCc1cc(CC)cc([C@H]2CNC(=O)[C@@H]2C(=O)Nc2ccccc2F)c1 [Compound 1138] , tested on corn (Zea mays), has a reported plant injury at 125 g/ha of 50

Entry CN1C[C@H](c2cc(C(F)F)cs2)[C@@H](C(=O)Nc2ccccc2S(C)(=O)=O)C1=O [Compound 1084] , tested on corn (Zea mays), has a reported plant injury at 125 g/ha of 0

Entry CN1C[C@H](c2csc(C(F)F)c2)[C@@H](C(=O)Nc2cccc(F)c2F)C1=O [Compound 1122] , tested on corn (Zea mays), has a reported plant injury at 125 g/ha of 50

Entry CN1C[C@H](c2ccc(Cl)cc2)[C@@H](C(=O)Nc2ccc(F)c(F)c2F)C1=O [Compound 1144] , tested on corn (Zea mays), has a reported plant injury at 125 g/ha of 50

Entry O=C1NC[C@H](c2cc(C(F)F)cs2)[C@H]1C(=O)Nc1ccccc1F [Compound 1116] , tested on corn (Zea mays), has a reported plant injury at 125 g/ha of 0

Entry O=C1NC[C@H](c2ccc(C(F)(F)F)cn2)[C@H]1C(=O)Nc1ccc(F)c(F)c1F [Compound 1105] , tested on corn (Zea mays), has a reported plant injury at 125 g/ha of 0

Entry COc1cccc([C@H]2CNC(=O)[C@@H]2C(=O)Nc2cccc(F)c2F)c1F [Compound 1061] , tested on corn (Zea mays), has a reported plant injury at 125 g/ha of 0
